Counter-ions that a name gives are not always drawn.
Provide the recorded melting point for the entries that follow.

{"columns": ["molecule", "readout-kind", "recorded-value"],
 "data": [
  ["COc1ccc(Cc2c3[nH]c4ccccc4c3c3c([n+]2[O-])CC(C)(C)CC3O)cc1 (centres unmarked)", "melting point", "185 °C"]
]}

Batch request: melting point for each of the following molecules.
1. CC(C)c1ccc(Cc2nc3c(c4c2[nH]c2ccccc24)C(=O)CC(C)(C)C3)cc1
2. COc1ccc(Cc2nc3c(c4c2[nH]c2ccccc24)C(=O)CC(C)(C)C3)cc1F
3. NC(=O)Nc1ccc(Cc2nc3c(c4c2[nH]c2ccccc24)C(=O)CCC3)cc1

Result:
["153 to 155 °C", "192 to 195 °C", "232 to 234 °C"]

Batch request: melting point for each of the following molecules.
1. COc1ccc(Cc2nc3c(c4c2[nH]c2ccccc24)[C@@H](O)CCC3)cc1F
2. CC1(C)CC(=O)c2c(nc(Cc3ccc(F)c(F)c3)c3[nH]c4ccccc4c23)C1
3. Brc1ccc(Cc2nc3c(c4c2[nH]c2ccccc24)CCCC3)cc1 (as salt: HCl)
4. CC1(C)CC(=O)c2c(nc(Cc3ccc4c(c3)OCO4)c3[nH]c4ccccc4c23)C1

Result:
125 to 127 °C
204 to 207 °C
311 to 312 °C
193 to 196 °C (dec.)

###

assay-system: UniProt:O76074
assay-protocol: Inhibition of PDE5 activity (modified SPA test, human platelet lysate)
settings: PDE5-containing human platelet lysate, 0.5 μM cGMP substrate, 37° C.
Experimental: As a source for human PDE5, platelets were used. […] PDE5A1 activity is inhibited by the compounds of the invention in a modified SPA (scintillation proximity assay) test, supplied by Amersham Biosciences (see procedural instructions “phosphodiesterase [3H]cAMP SPA enzyme assay, code TRKQ 7090”), carried out in 96-well microtitre plates (MTP's). […] After the beads have been sedimented (>30 min), the MTP's are analyzed in commercially available luminescence detection devices. […]
pIC50: −log10 of the molar value.
Entries are sorted into classes by pIC50 as follows: bottom end: < 7; midrange: ≥ 7 and < 8; top end: ≥ 8

Sample answers from the record:
{"columns": ["molecule", "class-name"],
 "data": [
  ["CC1(C)CC(=O)c2c(nc(Cc3cc(F)cc(Cl)c3)c3[nH]c4ccccc4c23)C1", "bottom end"],
  ["COc1ccc(Cc2c3[nH]c4ccccc4c3c3c([n+]2[O-])CC(C)(C)CC3O)cc1 (stereo not drawn)", "midrange"],
  ["O=C1CCCc2nc(Cc3ccc([N+](=O)[O-])cc3)c3[nH]c4ccccc4c3c21", "bottom end"],
  ["COc1ccc(Cc2nc3c(c4c2[nH]c2ccccc24)[C@H](O)CCC3)cc1F", "midrange"],
  ["CC1(C)Cc2nc(Cc3ccc4c(c3)OCO4)c3[nH]c4ccccc4c3c2C(O)C1 (stereo not drawn)", "top end"]
]}

Q: Band for the recorded pIC50 of CC1(C)Cc2nc(Cc3ccc(NC(N)=O)cc3)c3[nH]c4ccccc4c3c2C(O)C1 (stereo not drawn) ?
Result: midrange

###

Provide the recorded melting point for the entries that follow.

Check out these entries, answers already filled in.
{"columns": ["molecule", "melting point"],
 "data": [
  ["COc1ccc(Cc2nc3c(c4c2[nH]c2ccccc24)C(O)CC(C)(C)C3)c(F)c1F (centres unmarked) [Example 74]", "197 to 198 °C"],
  ["OC1CCCc2nc(Cc3ccc4c(c3)OCO4)c3[nH]c4ccccc4c3c21 (centres unmarked) [Example 61]", "120 to 123 °C"],
  ["CC1(C)CC(=O)c2c(nc(Cc3ccc(F)cc3)c3[nH]c4ccccc4c23)C1 [Example 28]", "200 to 204 °C"],
  ["COc1c(F)cc(Cc2nc3c(c4c2[nH]c2ccccc24)[C@@H](O)CC(C)(C)C3)cc1F [Example 89]", "161 to 162 °C"],
  ["COc1ccc(Cc2nc3c(c4c2[nH]c2ccccc24)CCC(C)C3)cc1 (centres unmarked) [Example 4]", "186 °C"],
  ["COc1ccc(Cc2nc3c(c4c2[nH]c2ccccc24)[C@@H](O)CC(C)(C)C3)cc1 [Example 81]", "118 to 120 °C"]
]}

Batch request: melting point for each of the following molecules.
1. COc1ccc(Cc2nc3c(c4c2[nH]c2ccccc24)[C@@H](O)CC(C)(C)C3)cc1F [Example 79]
2. COc1c(F)cc(Cc2nc3c(c4c2[nH]c2ccccc24)[C@H](O)CC(C)(C)C3)cc1F [Example 90]
3. CC1(C)CC(=O)c2c(nc(Cc3ccc(OC(F)(F)F)cc3)c3[nH]c4ccccc4c23)C1 [Example 11]
4. CC1(C)Cc2nc(Cc3cc(F)cc(F)c3)c3[nH]c4ccccc4c3c2[C@H](O)C1 [Example 84]
5. COc1ccc(Cc2nc3c(c4c2[nH]c2ccccc24)C(=O)CCC3)cc1F [Example 29]

Result:
1. 164 to 166 °C
2. 161 to 162 °C
3. 141 to 143 °C
4. 129 to 131 °C
5. 228 to 230 °C

Batch request: melting point for each of the following molecules.
1. COc1ccc(Cc2nc3c(c4c2[nH]c2ccccc24)C(=O)CC(C)(C)C3)c(F)c1F [Example 31]
2. COc1ccc(Cc2nc3c(c4c2[nH]c2ccccc24)[C@@H](OC(=O)[C@@H]2CCC(=O)N2)CC(C)(C)C3)cc1F [Example 98]
3. COc1ccc(Cc2nc3c(c4c2[nH]c2ccccc24)C(=O)CCC3)cc1 [Example 2]
4. O=C1CCCc2nc(Cc3ccccc3)c3[nH]c4ccccc4c3c21 [Example 3]

Result:
199 to 200 °C
185 to 187 °C
177 °C
205 °C

Batch request: melting point for each of the following molecules.
1. COc1ccc(Cc2nc3c(c4c2[nH]c2ccccc24)[C@H](O)CCC3)cc1F [Example 83]
2. COc1ccc(Cc2nc3c(c4c2[nH]c2ccccc24)C(O)CC(C)(C)C3)cc1 (centres unmarked) [Example 47]
3. CC1(C)Cc2nc(Cc3ccc(N)cc3)c3[nH]c4ccccc4c3c2C(O)C1 (centres unmarked) [Example 54]
4. CC(C)c1ccc(Cc2nc3c(c4c2[nH]c2ccccc24)C(O)CC(C)(C)C3)cc1 (centres unmarked) [Example 58]
5. CC1(C)CC(=O)c2c(nc(Cc3cccc(F)c3)c3[nH]c4ccccc4c23)C1 [Example 34]
6. COc1ccc(Cc2c3[nH]c4ccccc4c3c3c([n+]2[O-])CC(C)(C)CC3=O)cc1 [Example 78]
7. CC1(C)Cc2nc(Cc3cc(F)cc(F)c3)c3[nH]c4ccccc4c3c2C(O)C1 (centres unmarked) [Example 67]

Result:
1: 124 to 127 °C; 2: 146 °C; 3: 206 to 208 °C; 4: 112 to 114 °C; 5: 184 to 192 °C (dec.); 6: 202 °C; 7: 117 to 123 °C

###

Provide the recorded IC50 for the entries that follow.
assay-system: human PDE5 (Homo sapiens)
assay-protocol: Inhibition of PDE5 activity (modified SPA test, human platelet lysate)
settings: PDE5-containing human platelet lysate, 0.5 μM cGMP substrate, 37° C.
Where a name gives a salt, the structure may show the parent alone.
Give the value; after it, write the unit.

Check out these entries, answers already filled in.
{"columns": ["compound", "IC50"],
 "data": [
  ["CC1(C)CC(=O)c2c(nc(Cc3ccc(Cl)cc3)c3[nH]c4ccccc4c23)C1", "0.0102 µM"],
  ["COc1ccc(Cc2nc3c(c4c2[nH]c2ccccc24)C(=O)CCC3)cc1", "0.00631 µM"],
  ["COc1ccc(Cc2nc3c(c4c2[nH]c2ccccc24)C(=O)CC(C)(C)C3)cc1F", "0.00126 µM"],
  ["CC1(C)CC(=O)c2c(nc(Cc3ccc(Br)cc3)c3[nH]c4ccccc4c23)C1 [Example 5, HCl salt]", "0.0107 µM"],
  ["Nc1ccc(Cc2nc3c(c4c2[nH]c2ccccc24)C(=O)CCC3)cc1", "0.0257 µM"]
]}

Batch request: IC50 for each of the following compounds.
1. CC(=O)Nc1ccc(Cc2nc3c(c4c2[nH]c2ccccc24)C(O)CC(C)(C)C3)cc1 (stereo not drawn)
2. CC1(C)CC(=O)c2c(nc(Cc3ccc(F)cc3)c3[nH]c4ccccc4c23)C1
3. O=C1CCCc2nc(Cc3ccc4c(c3)OCO4)c3[nH]c4ccccc4c3c21
4. CC1(C)CC(=O)c2c(nc(Cc3cccc(N)c3)c3[nH]c4ccccc4c23)C1
5. CC1(C)CC(=O)c2c(nc(Cc3cccc(Cl)c3)c3[nH]c4ccccc4c23)C1
6. COc1ccc(Cc2nc3c(c4c2[nH]c2ccccc24)[C@@H](O)CC(C)(C)C3)cc1

Result:
1. 0.0468 µM
2. 0.0182 µM
3. 0.00363 µM
4. 0.00513 µM
5. 0.0372 µM
6. 0.001 µM

Batch request: IC50 for each of the following compounds.
1. CC1(C)CC(=O)c2c(nc(Cc3ccc(NC(N)=O)cc3)c3[nH]c4ccccc4c23)C1
2. CC1(C)Cc2nc(Cc3cccc(Cl)c3)c3[nH]c4ccccc4c3c2[C@@H](O)C1

Result:
1. 0.0105 µM
2. 0.0151 µM

Batch request: IC50 for each of the following compounds.
1. CC1(C)CC(=O)c2c(nc(Cc3ccc([N+](=O)[O-])cc3)c3[nH]c4ccccc4c23)C1 [Example 8, HCl salt]
2. OC1CCCc2nc(Cc3ccc4c(c3)OCO4)c3[nH]c4ccccc4c3c21 (stereo not drawn)

Result:
0.0813 µM
0.00724 µM
